- ASSAY_SYSTEM: S1P5 (Homo sapiens, UniProt Q9H228)
- Construct: Tango fusion: TEV protease site plus GAL4-VP16 transcription factor (own knowledge of the Tango format)
- Sequence (Q9H228 whole entry, the tested form may be a part): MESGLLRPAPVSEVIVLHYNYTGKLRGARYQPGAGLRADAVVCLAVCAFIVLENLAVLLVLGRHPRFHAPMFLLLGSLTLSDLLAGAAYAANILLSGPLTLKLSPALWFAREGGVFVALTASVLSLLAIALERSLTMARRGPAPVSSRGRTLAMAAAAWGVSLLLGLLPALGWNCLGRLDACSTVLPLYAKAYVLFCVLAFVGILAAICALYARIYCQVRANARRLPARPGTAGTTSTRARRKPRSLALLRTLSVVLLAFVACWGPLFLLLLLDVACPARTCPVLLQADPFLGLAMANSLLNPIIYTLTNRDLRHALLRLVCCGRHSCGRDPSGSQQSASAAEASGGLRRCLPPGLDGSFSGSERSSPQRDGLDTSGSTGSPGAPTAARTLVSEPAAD
- METHOD_SUMMARY: Specificity over other S1P receptors: S1P5-bla TANGO U2OS
- MEASUREMENT_CONDITIONS: without Forskolin, read-out: S1P5 agonist value (EC50)
READOUT_LABEL: EC50
Respond with a number, then the unit of measure.

MOLECULE	EC50
CC(C)Oc1ccc(-c2nnc(-c3cccc4c3CC[C@H]4NC(=O)N3CC[C@@H](N(C)C)C3)s2)cc1C#N [Compound 56]	139 nM

INPUT: Given the molecule CC(C)Oc1ccc(-c2ncc(-c3cccc4c3CC[C@H]4NC(=O)N3CCCC3)s2)cc1C#N [Compound 172] , what is its reported EC50?
OUTPUT: 203 nM

INPUT: Need EC50 of CC(C)Oc1ccc(-c2ncc(-c3cccc4c3CC[C@H]4NS(N)(=O)=O)s2)cc1C#N [Compound 166] , thanks.
OUTPUT: 64 nM

* * *

- ASSAY_SYSTEM: S1P1/EDG1 (Homo sapiens, UniProt P21453)
- Sequence (P21453 whole entry): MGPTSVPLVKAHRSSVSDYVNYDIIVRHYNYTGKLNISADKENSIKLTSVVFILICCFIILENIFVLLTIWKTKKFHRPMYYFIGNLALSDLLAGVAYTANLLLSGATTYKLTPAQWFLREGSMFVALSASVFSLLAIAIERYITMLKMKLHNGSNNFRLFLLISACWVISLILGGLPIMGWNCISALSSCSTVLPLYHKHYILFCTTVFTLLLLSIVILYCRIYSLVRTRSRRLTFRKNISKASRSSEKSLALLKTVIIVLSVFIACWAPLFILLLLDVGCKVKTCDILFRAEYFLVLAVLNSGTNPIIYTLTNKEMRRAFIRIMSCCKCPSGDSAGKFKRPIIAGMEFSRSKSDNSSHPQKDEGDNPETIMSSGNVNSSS
- METHOD_SUMMARY: S1P1 CRE-bla CHOK1 reporter assay, inhibition of Forskolin induced cAMP
- Assay type: cell-based
- MEASUREMENT_CONDITIONS: agonist activity range; S1P1 CRE-bla CHOK1 cells, 2 μM Forskolin; read-out: S1P1 ACTIVITY
READOUT_LABEL: EC50

COMPOUND	EC50
CC(C)Oc1ccc(-c2nnc(-c3cccc4c3CCC[C@@H]4NS(=O)(=O)CC(=O)N(C)C)s2)cc1C#N	0.05 to 0.5 nM

INPUT: Query: EC50; subject: `CC(C)Oc1ccc(-c2nnc(-c3cccc4c3CC[C@H]4NC(=O)N3CC[C@H](O)C3)s2)cc1C#N`
OUTPUT: 0.05 to 0.5 nM

INPUT: Tell me the measured EC50 of `COCC(=O)N[C@H]1CCCc2c(-c3nnc(-c4ccc(OC(C)C)c(C#N)c4)s3)cccc21` , please.
OUTPUT: 0.5 to 5 nM

INPUT: // returns reported EC50 for input `COCC(=O)N[C@@H]1CCCc2c(-c3nnc(-c4ccc(OC(C)C)c(C#N)c4)s3)cccc21`
OUTPUT: 0.05 to 0.5 nM

* * *

- ASSAY_SYSTEM: S1P1/EDG1 (Homo sapiens)
- METHOD_SUMMARY: S1P1 CRE-bla CHOK1 reporter assay, inhibition of Forskolin induced cAMP
- Format: cell-based
- MEASUREMENT_CONDITIONS: agonist activity range; S1P1 CRE-bla CHOK1 cells, 2 μM Forskolin; read-out: S1P1 ACTIVITY
READOUT_LABEL: EC50

MOLECULE	ASSAY_SYSTEM	REPORTED_VALUE
CC(C)Oc1ccc(-c2nnc(-c3cccc4c3CCC[C@H]4NC(=O)c3ccncc3)s2)cc1C#N [Compound 233]	S1P1/EDG1 (Homo sapiens)	0.5 to 5 nM
CC(C)Oc1ccc(-c2ncc(-c3cccc4c3CC[C@H]4NC(=O)N(C)C)s2)cc1C#N [Compound 168]	S1P1/EDG1 (Homo sapiens)	0.05 to 0.5 nM
CC(C)Oc1ccc(-c2nnc(-c3cccc4c3CCC[C@H]4NC(=O)CCN)s2)cc1C#N [Compound 249]	S1P1/EDG1 (Homo sapiens)	0.5 to 5 nM
CNCC(=O)N[C@@H]1CCCc2c(-c3nnc(-c4ccc(OC(C)C)c(C#N)c4)s3)cccc21 [Compound 251]	S1P1/EDG1 (Homo sapiens)	0.5 to 5 nM

INPUT: Which EC50 value belongs to CNCCS(=O)(=O)N[C@@H]1CCc2c(-c3cnc(-c4ccc(OC(C)C)c(C#N)c4)s3)cccc21 [Compound 126] ?
OUTPUT: 0.5 to 5 nM

INPUT: What measured EC50 goes with CC(C)Oc1ccc(-c2nnc(-c3cccc4c3CCC[C@@H]4NC(=O)CCN)s2)cc1C#N [Compound 253] ?
OUTPUT: 0.5 to 5 nM

INPUT: May I ask what EC50 has been recorded for CC(C)Oc1ccc(-c2ncc(-c3cccc4c3CC[C@H]4NC(=O)N3CC[C@H](N)C3)s2)cc1C#N [Compound 179] ?
OUTPUT: 0.5 to 5 nM

INPUT: Reported EC50, molecule CC(C)Oc1ccc(-c2nnc(-c3cccc4c3CCC[C@H]4NC(=O)CO)s2)cc1C#N [Compound 245] : ____
OUTPUT: 0.05 to 0.5 nM
